- System: BROTE: downy brome (Bromus tectorum)
- METHOD NOTES: Post-emergent Test III, herbicidal activity in wheat and barley
- Type: in vivo
- MEASUREMENT CONDITIONS: probit analysis, dose for growth reduction of 50 percent, 21 days after application
ASSAY READOUT: GR50 BROTE

Observe how each entry below is paired with its result.
* COC(=O)c1nc(-c2ccc(F)cc2)c(F)c(N)c1Cl | >140 g ai/ha
* COC(=O)c1nc(-c2ccc(C#N)cc2)c(F)c(N)c1Cl | >140 g ai/ha
* Nc1c(F)c(-c2ccc(OC(F)F)cc2)nc(C(=O)O)c1Cl | 95 g ai/ha
* C=Cc1c(C(=O)O)nc(-c2ccc(Cl)c(F)c2)c(F)c1N | >140 g ai/ha
* COC(=O)c1nc(-c2ccc(F)c(F)c2F)c(F)c(N)c1Cl | >140 g ai/ha

# input for lookup
q: Fill blank: measured GR50 BROTE of the compound `Nc1cc(-c2ccc(Br)c(F)c2F)nc(C(=O)O)c1Cl` is ____.
a: 29 g ai/ha
